Hello, the source for this data is paper PMC4767141, in case you need it.

# Study System: PKG1BETA (Homo sapiens)
# Sequence (Q13976 1-686 isoform Q13976-2): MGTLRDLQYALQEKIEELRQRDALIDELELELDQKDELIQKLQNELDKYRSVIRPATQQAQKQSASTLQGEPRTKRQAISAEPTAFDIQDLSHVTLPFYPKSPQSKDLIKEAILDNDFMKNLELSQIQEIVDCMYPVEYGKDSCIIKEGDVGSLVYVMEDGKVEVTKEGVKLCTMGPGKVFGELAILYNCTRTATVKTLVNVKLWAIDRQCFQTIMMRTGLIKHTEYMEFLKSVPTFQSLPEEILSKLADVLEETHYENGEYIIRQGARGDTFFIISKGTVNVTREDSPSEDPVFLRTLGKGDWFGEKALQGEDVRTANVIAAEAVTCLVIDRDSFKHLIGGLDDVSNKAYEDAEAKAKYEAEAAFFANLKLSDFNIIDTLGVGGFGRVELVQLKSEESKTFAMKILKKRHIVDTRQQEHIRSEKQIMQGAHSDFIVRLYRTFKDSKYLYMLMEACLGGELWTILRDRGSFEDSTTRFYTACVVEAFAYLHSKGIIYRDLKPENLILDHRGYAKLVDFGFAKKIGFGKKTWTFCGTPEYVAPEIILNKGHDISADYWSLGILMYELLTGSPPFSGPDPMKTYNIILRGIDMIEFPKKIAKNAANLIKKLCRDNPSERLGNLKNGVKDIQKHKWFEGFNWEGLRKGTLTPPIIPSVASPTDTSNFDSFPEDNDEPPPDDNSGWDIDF
Property Name: IC50

Task: Value lookup for IC50; key = Cn1cc(-c2ccc(-c3cncc(Cl)c3N3CCC4(CCNC4=O)CC3)cc2)cn1
Output: > 10 µM

----------
# Assay Notes: pKa of the pyridine nitrogen
# Type: physicochemical
# Experimental Parameters: measured at Cyprotex
# Procedure: [32] pKa measurement was conducted at Cyprotex according to their published protocol: .
Property Name: pKa

Task: Value lookup for pKa; key = c1cc(N2CCCCC2)ccn1 [4-(piperidin-1-yl)pyridine]
Output: 9.42

----------
# Assay Notes: Clint determination
# Format: in vitro ADME
# Experimental Parameters: mouse, microsomes, pH 7.4, mouse microsomes, read-out: Clint (μL/min/mg) Mouse
Give measured microsomal CLint at 1 μM for each item. Keep answers brief.
Answers are plain numbers, in µL/min/mg.

Sample records with microsomal CLint at 1 μM:
> print(dat)
                                   compound             property.name  measured.result
1  O=C1NCCC12CCN(c1c(Cl)cncc1-c1ccc(N3CCOCC3)cc1)C2 (stereo not shown)  microsomal CLint at 1 μM              827
2  O=C1NCCC12CCN(c1c(Cl)cncc1-c1ccc(N3CCOCC3)cc1)CC2  microsomal CLint at 1 μM              290

As a next step, examine the compound that follows.
Task: Value lookup for microsomal CLint at 1 μM; key = O=C1CC2(CCN(c3c(Cl)cncc3-c3ccc(N4CCOCC4)cc3)CC2)C(=O)N1
Output: 54
